system: 323965-272-R-J2-PDC complex spheroid growth, % test/control; assay: Anticancer human tumor 323965-272-R-J2-PDC patient-derived pancreatic carcinoma cell line growth inhibition [Asc]; settings: curve of first compound; second compound 0.0316 µM
test readout: IC50 (µM)
Provide only the numeric value, understood in µM.

Asked: Give its IC50 value. Item: C=C(F)C(=O)N1CCN(c2nc(OCC3CCCN3C)nc3c2CCN(c2cccc4cccc(Cl)c24)C3)CC1CC#N (configuration not stated) + CNC(C)C(=O)NC1CN(S(=O)(=O)c2cccc(S(=O)(=O)N3CCC4CCC(C(=O)NC(c5ccccc5)c5ccccc5)N4C(=O)C(NC(=O)C(C)NC)C3)c2)CCC2CCC(C(=O)NC(c3ccccc3)c3ccccc3)N2C1=O
Given back: 3.7

====

Some molecules, each annotated with its measured viability, T/C.
system: 323965-272-R-J2-PDC complex spheroid growth, % test/control; assay: Anticancer human tumor 323965-272-R-J2-PDC cell line growth inhibition [Asc]; conditions: second compound 1 µM; first compound 0.316 µM; stronger effect = lower value;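 further: compound exposure lasted 7 days starting three days after spheroid seeding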;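 on viability, T/C: 100% = DMSO vehicle control wells with viability set relative to vehicle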
Give just the numeric value; % need not be written.

COc1c(OCCCN2CCOCC2)ccc2c3n(c(=NC(=O)c4cnc(N)nc4)nc12)CCN3 + Cc1c(S(C)(=O)=O)c(-c2cc(F)cc(N3CCN(c4ccc(NS(=O)(=O)c5ccc(NC(CCN6CCC(C(=O)OCCCP(=O)(O)O)CC6)CSc6ccccc6)c(S(=O)(=O)C(F)(F)F)c5)cc4)CC3)c2)c(-c2ccc(Cl)cc2)n1C(C)C : 32.4
COc1c(OCCCN2CCOCC2)ccc2c3n(c(=NC(=O)c4cnc(N)nc4)nc12)CCN3 + CNC(C)C(=O)NC1CN(S(=O)(=O)c2cccc(S(=O)(=O)N3CCC4CCC(C(=O)NC(c5ccccc5)c5ccccc5)N4C(=O)C(NC(=O)C(C)NC)C3)c2)CCC2CCC(C(=O)NC(c3ccccc3)c3ccccc3)N2C1=O : 35.8

# ---- query molecule ----
Asked: # value lookup — system 323965-272-R-J2-PDC complex spheroid growth, % test/control, readout viability, T/C, item O=C(c1ccc(F)c(F)c1Nc1ccc(I)cc1F)N1CC(O)([C@@H]2CCCCN2)C1 + CNC(C)C(=O)NC1CN(S(=O)(=O)c2cccc(S(=O)(=O)N3CCC4CCC(C(=O)NC(c5ccccc5)c5ccccc5)N4C(=O)C(NC(=O)C(C)NC)C3)c2)CCC2CCC(C(=O)NC(c3ccccc3)c3ccccc3)N2C1=O
Given back: 18.8

====

Test system: 323965-272-R-J2-PDC complex spheroid growth, % test/control
Assay: Anticancer human tumor 323965-272-R-J2-PDC cell line growth inhibition [Asc];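 further: compound exposure lasted 7 days starting three days after spheroid seeding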;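 on viability, T/C: 100% = DMSO vehicle control wells with viability set relative to vehicle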
Settings: second compound 0.3 µM; first compound 0.316 µM; stronger effect = lower value
Source text: Multicellular complex tumor spheroid response to apoptosis pathway targeting inhibitors Alrizomadlin, Pelcitoclax, and Dasminapant in combination with a variety of drugs and investigational agents in selected tumor cell lines […] Compounds. […] If the clinical Cmax for an agent had not been determined, the highest concentration tested was 10 microM. […]
Each entry below carries its reported viability, T/C.
A number alone suffices; assume %.

The examples below pair each entry with its known result.
O=C(c1ccc(F)c(F)c1Nc1ccc(I)cc1F)N1CC(O)([C@@H]2CCCCN2)C1 + CCN1C(C(=O)NC23CCC(C(=O)O)(CC2)CC3)C(c2cccc(Cl)c2F)C2(C(=O)Nc3cc(Cl)ccc32)C12CCCCC2 : 37.1
CNC(C)C(=O)NC1CN(S(=O)(=O)c2cccc(S(=O)(=O)N3CCC4CCC(C(=O)NC(c5ccccc5)c5ccccc5)N4C(=O)C(NC(=O)C(C)NC)C3)c2)CCC2CCC(C(=O)NC(c3ccccc3)c3ccccc3)N2C1=O (centres undefined) + CCN1C(C(=O)NC23CCC(C(=O)O)(CC2)CC3)C(c2cccc(Cl)c2F)C2(C(=O)Nc3cc(Cl)ccc32)C12CCCCC2 : 104
COc1c(OCCCN2CCOCC2)ccc2c3n(c(=NC(=O)c4cnc(N)nc4)nc12)CCN3 + CCN1C(C(=O)NC23CCC(C(=O)O)(CC2)CC3)C(c2cccc(Cl)c2F)C2(C(=O)Nc3cc(Cl)ccc32)C12CCCCC2 : 36.6

Consider the additional compound presented here.
Asked: Provide the documented viability, T/C with 323965-272-R-J2-PDC complex spheroid growth, % test/control as the system for CCN1CCN(Cc2ccc(Nc3ncc(F)c(-c4cc(F)c5nc(C)n(C(C)C)c5c4)n3)nc2)CC1 + CCN1C(C(=O)NC23CCC(C(=O)O)(CC2)CC3)C(c2cccc(Cl)c2F)C2(C(=O)Nc3cc(Cl)ccc32)C12CCCCC2
Given back: 85.1
